targetEntity: Flpin-293-PDE4B2 cells (Homo sapiens, UniProt Q07343)
Sequence (Q07343 1-564 isoform Q07343-2): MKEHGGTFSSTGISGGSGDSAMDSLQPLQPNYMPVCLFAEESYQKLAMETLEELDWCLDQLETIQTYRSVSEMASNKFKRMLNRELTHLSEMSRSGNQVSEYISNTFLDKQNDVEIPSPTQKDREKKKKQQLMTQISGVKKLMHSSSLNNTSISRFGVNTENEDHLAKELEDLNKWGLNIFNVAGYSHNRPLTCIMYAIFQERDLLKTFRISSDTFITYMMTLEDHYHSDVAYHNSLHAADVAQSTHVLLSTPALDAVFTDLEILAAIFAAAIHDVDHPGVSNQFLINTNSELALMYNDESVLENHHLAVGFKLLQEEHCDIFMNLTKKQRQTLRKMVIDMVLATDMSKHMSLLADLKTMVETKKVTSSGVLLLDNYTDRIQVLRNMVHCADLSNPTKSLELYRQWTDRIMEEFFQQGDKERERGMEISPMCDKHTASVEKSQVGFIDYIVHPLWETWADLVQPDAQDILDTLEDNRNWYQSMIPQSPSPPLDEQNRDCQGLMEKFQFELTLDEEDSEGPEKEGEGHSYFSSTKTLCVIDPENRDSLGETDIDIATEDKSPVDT
methodDescription: cell-based
appliedConditions: read-out: Cell Inhibition % @10 nM, 10 nM, Flpin-293-PDE4B2 cells
Quick rule for you: inhibition at 0.01 µM at 50% or higher means y, lower means n.

Asked: Does COC(=O)N1CC[C@H](Nc2nc(N3CCc4cc(N5CCCC5)ccc4C3)nc3c2[S+]([O-])CC3)C1 (stereo partly drawn) have a reported inhibition at 0.01 µM of at least 50%?
Given back: y

Asked: Does [O-][S+]1CCc2nc(N3CCc4cc(-n5cccn5)ccc4C3)nc(NC3(CO)CCC3)c21 (stereo not drawn) have a reported inhibition at 0.01 µM of at least 50%?
Given back: y

Asked: Does [O-][S+]1CCc2nc(N3CCc4cc(N5CC[C@H](O)C5)ccc4C3)nc(NC3(CO)CCC3)c21 (stereo partly drawn) have a reported inhibition at 0.01 µM of at least 50%?
Given back: n

Asked: Does [O-][S+]1CCc2nc(N3CCc4cc(N5CCC(CO)C5)ccc4C3)nc(NC3(CO)CCC3)c21 (stereo not drawn) have a reported inhibition at 0.01 µM of at least 50%?
Given back: n

Asked: Does [O-][S+]1CCc2nc(N3CCc4cc(C(F)(F)F)ccc4C3)nc(NC3(CO)CCC3)c21 (stereo not drawn) have a reported inhibition at 0.01 µM of at least 50%?
Given back: y

Asked: Does N#CCc1ccc(Nc2nc(N3CCc4cc(Cl)ccc4C3)nc3c2[S+]([O-])CC3)cc1 (stereo not drawn) have a reported inhibition at 0.01 µM of at least 50%?
Given back: n

Asked: Does [O-][S+]1CCc2nc(N3CCc4ccc(Cl)cc4CC3)nc(NC3(CO)CCC3)c21 (stereo not drawn) have a reported inhibition at 0.01 µM of at least 50%?
Given back: n

Asked: Does CS(=O)(=O)c1ccc2c(c1)CCN(c1nc3c(c(NC4(CO)CCC4)n1)[S+]([O-])CC3)C2 (stereo not drawn) have a reported inhibition at 0.01 µM of at least 50%?
Given back: y

Asked: Does [O-][S+]1CCc2nc(N3CCc4cc(N5C[C@H]6COC[C@H]6C5)ccc4C3)nc(NC3(CO)CCC3)c21 (stereo partly drawn) have a reported inhibition at 0.01 µM of at least 50%?
Given back: y

Asked: Does [O-][S+]1CCc2nc(N3CCc4cc(F)c(F)cc4C3)nc(NC3(CO)CCC3)c21 (stereo not drawn) have a reported inhibition at 0.01 µM of at least 50%?
Given back: n

Asked: Does C[C@H]1c2ccc(N3CCC(F)(F)C3)cc2CCN1c1nc2c(c(NC3(CO)CCC3)n1)[S+]([O-])CC2 (stereo partly drawn) have a reported inhibition at 0.01 µM of at least 50%?
Given back: n

Asked: Does [O-][S+]1CCc2nc(N3Cc4ccc(Cl)cc4C3)nc(NC3(CO)CCC3)c21 (stereo not drawn) have a reported inhibition at 0.01 µM of at least 50%?
Given back: n

Asked: Does [O-][S+]1CCc2nc(N3CCc4cc(N5CCC6(COC6)C5)ccc4C3)nc(NC3(CO)CCC3)c21 (stereo not drawn) have a reported inhibition at 0.01 µM of at least 50%?
Given back: y

Asked: Does Cn1c2c(c3ccc(Cl)cc3c1=O)CCN(c1nc3c(c(NC4(CO)CCC4)n1)[S+]([O-])CC3)C2 (stereo not drawn) have a reported inhibition at 0.01 µM of at least 50%?
Given back: n

Asked: Does [O-][S+]1CCc2nc(N3Cc4ccc(Br)cc4C3)nc(NC3(CO)CCC3)c21 (stereo not drawn) have a reported inhibition at 0.01 µM of at least 50%?
Given back: n

Asked: Does [O-][S+]1CCc2nc(N3CCc4cc(I)ccc4C3)nc(NC3(CO)CCC3)c21 (stereo not drawn) have a reported inhibition at 0.01 µM of at least 50%?
Given back: n

Asked: Does [O-][S+]1CCc2nc(N3CCc4cc(N5CCCC5)ccc4C3)nc(Nc3cn[nH]c3)c21 (stereo not drawn) have a reported inhibition at 0.01 µM of at least 50%?
Given back: n

Asked: Does C[C@H]1c2ccc(N3CCCC3)cc2CCN1c1nc2c(c(N[C@H]3CCC(=O)N(C)C3)n1)[S+]([O-])CC2 (stereo partly drawn) have a reported inhibition at 0.01 µM of at least 50%?
Given back: y

Asked: Does [O-][S+]1CCc2nc(N3CCC4=C(COc5ccccc54)C3)nc(NC3(CO)CCC3)c21 (stereo not drawn) have a reported inhibition at 0.01 µM of at least 50%?
Given back: n

Asked: Does C[C@H]1c2ccc(N3CCCC3)cc2CCN1c1nc2c(c(Nc3cnn(CCC#N)c3)n1)[S+]([O-])CC2 (stereo partly drawn) have a reported inhibition at 0.01 µM of at least 50%?
Given back: y

Asked: Does [O-][S+]1CCc2nc(N3CCc4cc(Cl)ccc4[C@H]3C3CC3)nc(NC3(CO)CCC3)c21 (stereo partly drawn) have a reported inhibition at 0.01 µM of at least 50%?
Given back: n

Asked: Does Cn1cc(Nc2nc(N3CCc4cc(N5CC6CC6C5)ccc4C3)nc3c2[S+]([O-])CC3)cn1 (stereo not drawn) have a reported inhibition at 0.01 µM of at least 50%?
Given back: y

Asked: Does NC(=O)c1ccc2c(c1)CCN(c1nc3c(c(NC4(CO)CCC4)n1)[S+]([O-])CC3)C2 (stereo not drawn) have a reported inhibition at 0.01 µM of at least 50%?
Given back: n

Asked: Does [O-][S+]1CCc2nc(N3CCc4cc(Cl)ccc4C3)nc(Nc3ccc(CCO)cc3)c21 (stereo not drawn) have a reported inhibition at 0.01 µM of at least 50%?
Given back: y

Asked: Does [O-][S+]1CCc2nc(N3CCc4cc(-c5ncco5)ccc4C3)nc(NC3(CO)CCC3)c21 (stereo not drawn) have a reported inhibition at 0.01 µM of at least 50%?
Given back: y

Asked: Does [O-][S+]1CCc2nc(N3CCc4cc(N5CCCC5)ccc4C3)nc(N3CCC[C@H]3CO)c21 (stereo partly drawn) have a reported inhibition at 0.01 µM of at least 50%?
Given back: n

Asked: Does CO[C@H]1CCN(c2ccc3c(c2)CCN(c2nc4c(c(NC5(CO)CCC5)n2)[S+]([O-])CC4)C3)C1 (stereo partly drawn) have a reported inhibition at 0.01 µM of at least 50%?
Given back: y

Asked: Does C[C@H]1c2ccc(N3CCCC3)cc2CCN1c1nc2c(c(NC3(CO)CCCC3)n1)[S+]([O-])CC2 (stereo partly drawn) have a reported inhibition at 0.01 µM of at least 50%?
Given back: y

Asked: Does C[C@H]1CN(c2nc3c(c(NC4(CO)CCC4)n2)[S+]([O-])CC3)Cc2ccc(Cl)cc21 (stereo partly drawn) have a reported inhibition at 0.01 µM of at least 50%?
Given back: n

All values here come from patent US20260285880A1.
